- System name: T1, human TREM2 (human, UniProt Q9NZC2 19-174, limits assumed)
- T1 sequence: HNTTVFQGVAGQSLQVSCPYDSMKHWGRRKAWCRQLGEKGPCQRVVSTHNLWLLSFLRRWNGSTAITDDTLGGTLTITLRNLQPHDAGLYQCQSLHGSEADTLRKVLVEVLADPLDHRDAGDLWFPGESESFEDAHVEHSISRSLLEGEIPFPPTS
- Protocol text: yeast-displayed Fab FACS, 1st screen 10 nM
Please note: YES applies when binding signal fold over 6E7 parental is 4 fold or greater, and NO applies otherwise.

V89 (Fab, V domains shown) VH: EVQLVQSGAEVKKPGESLKISCKGSGYSFTSYWIAWVRQMPGKGLEWMGIIYPGDSDTRYSPSFQGQVTISADKSISTAYLQWSSLKASDTAMYFCARQRTFYYDSSDYFDYWGQGTLVTVSS VL: DIQMTQSPSSVSASVGDRVTITCRASQGISSWLAWYQQKPGKAPKLLIYAASSLQNGVPSRFSGSGSGTDFTLTISSLQPEDFATYFCQQADSHPRTFGQGTKLEIK : NO
V87 (Fab, V domains shown) VH: EVQLVQSGAEVKKPGESLKISCKGSGYSFRSYWIAWVRQMPGKGLEWMGIIYPGDSDVRYSPDFQGQVTISADKSISTAYLQWSSLKASDTAMYFCARSRTFYYDSSDYFDYWGQGTLVTVSS VL: DIQMTQSPSSVSASVGDRVTITCRASQGISSWLAWYQQKPGKAPKLLIYAASSLQWGVPSRFSGSGSGTDFTLTISSLQPEDFATYFCQQADSFPRTFGQGTKLEIK : NO

Record V86 (Fab, V domains shown) VH: EVQLVQSGAEVKKPGESLKISCKGSGYSFGSYWLAWVRQMPGKGLEWMGIIYPGDSDTRYSPSFEGQVTISADKSISTAYLQWSSLKASDTAMYFCARSRTFYYDSSDYFDYWGQGTLVTVSS VL: DIQMTQSPSSVSASVGDRVTITCRASQGISSWLAWYQQKPGKAPKLLIYAASSRQNGVPSRFSGSGSGTDFTLTISSLQPEDFATYFCQQADSFPRTFGQGTKLEIK ; criterion: binding signal fold over 6E7 parental no lower than 4 fold. Met?
YES

Reported binding signal fold over 6E7 parental at or above 4 fold? V41 (Fab, V domains shown) VH: EVQLVQSGAEVKKPGESLKISCKGSGYSFTSYWIAWVRQMPGKGLEWMGTIYPGDSDTRYSPSFQGQVTISADKSISTAYLQWSSLKASDTAMYFCARQRTFYYDSSDYFDYWGQGTLVTVSS VL: DIQMTQSPSSVSASVGDRVTITCRASQGISSWLAWYQQKPGKAPKLLIYAASSLQNGVPSRFSGSGSGTDFTLTISSLQPEDFATYFCQQADSFPRTFGQGTKLEIK
NO

Check if binding signal fold over 6E7 parental >= 4 fold (inclusive). Item: V63 (Fab, V domains shown) VH: EVQLVQSGAEVKKPGESLKISCKGSGYSFRSYWIAWVRQMPGKGLEWMGIIYPGDSDTRYSPSFQGQVTISADKSISTAYLQWSSLKASDTAMYFCARSRTFYYDSSDYFDYWGQGTLVTVSS VL: DIQMTQSPSSVSASVGDRVTITCRASQGISSWLAWYQQKPGKAPKLLIYAASSLQRGVPSRFSGSGSGTDFTLTISSLQPEDFATYFCQQADRFPRTFGQGTKLEIK
NO
